Below: compounds with pIC50 recorded for Epoxide hydrolase 1 (Homo sapiens, UniProt P07099) in separate published works.
pIC50: −log10 of the molar value.

Worked cases, answers included:
CC1(c2ccccc2)CCCN(C(=O)N[C@H]2C[C@@H]2c2ccccc2)C1 (stereo partly drawn)    < 4.00
O=C(N[C@H]1C[C@@H]1c1ccccc1)N1CCC2(CCc3cc(F)ccc3O2)CC1 (racemic)    < 4.00
CC1(c2ccccc2)CCCN(C(=O)Nc2ccc(Cl)cc2)C1 (stereo not drawn)    < 4.00
O=C(O)CC1(c2ccccc2)CCCN(C(=O)Nc2ccc(Cl)cc2)C1 (stereo not drawn)    < 4.00
CN(C)CCC1(c2ccccc2)CCCN(C(=O)Nc2ccc(Cl)cc2)C1 (stereo not drawn)    < 4.00
O=C(N[C@H]1C[C@@H]1c1ccccc1)N1CCC2(CCc3ccccc3O2)CC1 (racemic)    < 4.00
O=C1CC2(CCN(C(=O)N[C@H]3C[C@@H]3c3ccccc3)CC2)Oc2cccnc21 (relative stereo)    < 4.00
O=C(NC(=S)Nc1ccc(Br)c2ccccc12)c1ccccc1    5.73

*Q* For Epoxide hydrolase 1 (Homo sapiens, UniProt P07099), give the measured pIC50 of the entry CC1(c2ccccc2)CCCN(C(=O)NCCc2ccc3nc[nH]c3c2)C1 (stereo not drawn)
*A* < 4.00

*Q* For Epoxide hydrolase 1 (Homo sapiens, UniProt P07099), give the measured pIC50 of the entry CC1(c2ccccc2)CCCN(C(=O)Nc2ccncc2)C1 (stereo not drawn)
*A* < 4.00

*Q* For Epoxide hydrolase 1 (Homo sapiens, UniProt P07099), give the measured pIC50 of the entry CC1(c2ccccc2)CCCN(C(=O)NCCc2ccc3nccnc3c2)C1 (stereo not drawn)
*A* < 4.00

*Q* For Epoxide hydrolase 1 (Homo sapiens, UniProt P07099), give the measured pIC50 of the entry `O=C(NC(=S)Nc1cc(Cl)ccc1Cl)c1ccccc1`
*A* 5.67

*Q* For Epoxide hydrolase 1 (Homo sapiens, UniProt P07099), give the measured pIC50 of the entry O=C(O)CCCCC1(c2ccccc2)CCCN(C(=O)Nc2ccc(Cl)cc2)C1 (stereo not drawn)
*A* < 4.00
